B1: scFv; the commonest letter at each place (parent)
chain 1: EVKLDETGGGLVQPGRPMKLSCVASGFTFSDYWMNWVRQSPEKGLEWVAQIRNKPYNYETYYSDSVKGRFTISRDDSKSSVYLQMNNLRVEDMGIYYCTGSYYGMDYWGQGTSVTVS
chain 2: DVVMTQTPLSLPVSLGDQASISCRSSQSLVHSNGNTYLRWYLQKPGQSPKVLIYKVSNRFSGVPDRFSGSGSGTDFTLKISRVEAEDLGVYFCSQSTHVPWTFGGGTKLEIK

- Variants of: B1
- TEST_DETAILS: Kd (Tite-Seq)
- PARTICULARS: with fluorescein; format: scFv 4-4-20, heavy + light
pKd: −log10 of the molar value.
Quick reference for pKd among some variants

MUTATION_NAME	pKd
chain 1 T28S V37S	8.11
chain 1 T28G W36N	≤ 5.00
chain 1 G104W	≤ 5.00
chain 1 M105W W108K	5.54
chain 1 G109K	≤ 5.00
chain 1 T28A D31C N35A	≤ 5.00
chain 1 S101Q M105Y	≤ 5.00
chain 1 G100M Y107T	≤ 5.00
chain 1 F29C D31Y	≤ 5.00
chain 1 F29I S30E	8.46

Data request: Using the record for chain 1 G100W S101E , report its pKd.
Data returned: ≤ 5.00

Data request: Next record, please: chain 1 W33M M34P
Data returned: ≤ 5.00

Data request: Request: chain 1 N35M V37Y
Data returned: ≤ 5.00

Data request: Okay, and chain 1 S30E N35E ?
Data returned: ≤ 5.00

Data request: Query chain 1 Y103Q next
Data returned: 7.70

Data request: Another variant to look at: chain 1 D31N Y32L
Data returned: 8.26

Data request: Try this variant too: chain 1 V37A
Data returned: 7.36

Data request: Again, but for chain 1 D106H G109K
Data returned: ≤ 5.00
